System: Mus musculus
experimental-details: Analgesic activity against acetic acid induced writhing test in mouse after peroral administration
Assay type: functional
recorded-conditions: Mus musculus, po; read-out: ED50
outcome-measure: log10 ED50 (log10 of the value in mg/kg)
Please interpret these as log10 of ED50 where ED50 is in mg/kg.

Recorded results for 3 compounds are shown here.
O=C(Nc1nccs1)c1cnc2cc(C(F)(F)F)ccc2c1O ... 2.00
CC(C)C(O)c1nc2c(C(F)(F)F)cccc2c(O)c1C(=O)Nc1nccs1 (configuration not stated) ... 1.30
CN1C(C(=O)Nc2ccccn2)=C(O)c2ccccc2S1(=O)=O ... 0.52

Which log10 ED50 is listed for O=C(Nc1nccs1)c1c(C(F)(F)F)nc2ccc(C(F)(F)F)cc2c1O ?
2.00

Proceed to CC(C)(C)C(O)c1nc2c(C(F)(F)F)cccc2c(O)c1C(=O)Nc1nccs1 (configuration not stated)
1.70

Can you check CCCCc1nc2c(C(F)(F)F)cccc2c(O)c1C(=O)Nc1nccs1 next?
1.70

Try this compound next: Cc1nc2c(C(F)(F)F)cccc2c(O)c1C(=O)Nc1ccccn1
0.70

One more compound: O=C(Nc1ncccn1)c1cnc2c(C(F)(F)F)cccc2c1O
1.70

Could you do the same for O=C(Nc1nccs1)c1c(C(Cl)Cl)nc2c(Cl)cccc2c1O , please?
1.40

Item: CCc1nc2c(C(F)(F)F)cccc2c(O)c1C(=O)Nc1nccs1
0.48

Repeat for the following compound: CCc1nc2c(C(F)(F)F)cccc2c(O)c1C(=O)Nc1ccccn1
1.26

Request: O=C(Nc1nccs1)c1c(-c2ccccc2)nc2c(C(F)(F)F)cccc2c1O
1.70

Source: ChEMBL document CHEMBL1124161
